# EXPERIMENTAL PROTOCOL: Phase 1 trial, pharmacokinetics in healthy volunteers
# Type: in vivo, human
# PROTOCOL CONDITIONS: human, in vivo, multiple day exposures, across cohorts; read-out: half-life (t1/2), mean values
TEST READOUT: half-life

So what's the measured half-life for this one? CC(C)(O)c1nc2ccccc2cc1N 3.07 to 6.2 h

###

# EXPERIMENTAL PROTOCOL: Phase 1 trial, pharmacokinetics in healthy volunteers
# Assay type: in vivo, human
# PROTOCOL CONDITIONS: human, in vivo, 600 mg, 600 mg BID, Day 1; read-out: half-life (converted)
TEST READOUT: half-life

So what's the measured half-life for this one? CC(C)(O)c1nc2ccccc2cc1N 3.98 h

These measurements were taken from patent US20230149383A1.
